# system: human TLR8 (Homo sapiens)
# Construct: host or cells: HEK-Blue cells
# Sequence (Q9NR97 27-1041): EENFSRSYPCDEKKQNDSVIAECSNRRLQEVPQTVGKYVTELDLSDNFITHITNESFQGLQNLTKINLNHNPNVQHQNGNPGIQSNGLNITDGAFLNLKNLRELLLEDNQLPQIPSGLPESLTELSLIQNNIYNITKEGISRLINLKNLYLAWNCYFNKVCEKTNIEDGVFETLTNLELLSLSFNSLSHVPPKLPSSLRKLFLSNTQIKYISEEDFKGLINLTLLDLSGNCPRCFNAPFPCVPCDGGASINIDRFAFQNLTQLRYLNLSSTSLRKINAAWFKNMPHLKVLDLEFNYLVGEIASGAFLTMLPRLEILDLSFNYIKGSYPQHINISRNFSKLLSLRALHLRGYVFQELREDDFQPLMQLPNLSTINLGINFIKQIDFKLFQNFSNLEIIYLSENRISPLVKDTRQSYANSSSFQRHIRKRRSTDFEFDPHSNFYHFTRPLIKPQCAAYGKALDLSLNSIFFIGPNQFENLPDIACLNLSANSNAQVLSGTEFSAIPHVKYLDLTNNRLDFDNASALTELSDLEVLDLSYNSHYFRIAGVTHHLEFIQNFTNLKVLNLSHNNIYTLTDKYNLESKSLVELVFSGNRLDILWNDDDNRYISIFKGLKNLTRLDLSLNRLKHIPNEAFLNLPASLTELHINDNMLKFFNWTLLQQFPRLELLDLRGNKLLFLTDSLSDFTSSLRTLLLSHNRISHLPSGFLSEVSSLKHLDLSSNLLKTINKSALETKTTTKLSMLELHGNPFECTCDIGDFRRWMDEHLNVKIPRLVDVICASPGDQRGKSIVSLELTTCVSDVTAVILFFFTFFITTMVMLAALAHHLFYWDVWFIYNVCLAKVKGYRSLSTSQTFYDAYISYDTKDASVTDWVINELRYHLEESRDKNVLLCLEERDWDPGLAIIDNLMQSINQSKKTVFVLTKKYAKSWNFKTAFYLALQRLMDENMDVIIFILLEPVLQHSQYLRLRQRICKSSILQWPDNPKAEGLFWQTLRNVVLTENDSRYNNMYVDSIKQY
# measurement_notes: TLR8 inhibition reporter assay (HEK-Blue cells, SEAP reporter, R848 stimulation)
# Type: cell-based
# recorded_conditions: HEK-Blue cells overexpressing human TLR8, SEAP reporter, R848 15.9 μM; read-out: TLR8 IC50
property: IC50 (nM)

Cc1c(-c2[nH]c3sc(N4CC5(CN(CC(C)(C)O)C5)C4)nc3c2C(C)C)cn2ncnc2c1C : 0.93
COc1cc(-c2[nH]c3sc(C4CCC(NC5(C)CCC5)CC4)nc3c2C(C)C)cn2ncnc12 (single isomer, unassigned) [Example 109] : 27.9
Cc1c(-c2[nH]c3sc(C4CCC(N5CCC5)CC4)nc3c2C(C)C)cn(C)c(=O)c1C (single isomer, unassigned) [Example 255] : 4.88
Cc1c(-c2[nH]c3sc(C4CCC(N5CC6(COC6)C5)CC4)nc3c2C(C)C)cn2ncnc2c1C (single isomer, unassigned) [Example 192] : 0.33
Cc1cc2ncnn2cc1-c1[nH]c2sc(C3CCC(NCC(C)(C)O)CC3)nc2c1C(C)C (single isomer, unassigned) [Example 156] : 0.09

[A] COc1cc(-c2[nH]c3sc(C4CCC(N)CC4)nc3c2C(C)C)cn2ncnc12 (single isomer, unassigned) [Example 93]
[B] COc1cc(-c2[nH]c3sc(C4CCC(N5CCC6(CCNC6)C5)CC4)nc3c2C(C)C)cn2ncnc12 (single isomer, unassigned) [Example 114]
Task: Between the entries labelled A and B , which has a larger IC50 value on record? Reply with the label of the item you choose.
Output: A
(A: 15.6 nM, B: 1.4 nM)

[a] Cc1c(-c2[nH]c3sc(N4CCN(CC(C)(C)O)C[C@@H]4C)nc3c2C(C)C)cn2ncnc2c1C
[b] Cc1cc(-c2[nH]c3sc(C4CCN(CC(C)(C)O)CC4)nc3c2C(C)C)cc(C)n1
[c] COc1cc(-c2[nH]c3sc(C4CCC(N5CCNC(=O)C5)CC4)nc3c2C(C)C)cn2ncnc12 (single isomer, unassigned) [Example 120]
[d] Cc1c(-c2[nH]c3sc(C4CCC(NCC5(S(C)(=O)=O)CC5)CC4)nc3c2C(C)C)cn(C)c(=O)c1C (single isomer, unassigned) [Example 257]
[e] Cc1cc(-c2[nH]c3nc(C4CCN(CC5(C)COC5)CC4)sc3c2C(C)C)cn2ncnc12
Task: Put the entries in order of IC50, starting with the largest number. Your answer should be the labels, listed in the requested order.
Output: e, c, a, b, d
(e: 520 nM, c: 16.7 nM, a: 3.12 nM, b: 1.91 nM, d: 0.86 nM)
